# system.name: T1, untagged β′-COP residues 1–604 (yeast (S. cerevisiae), UniProt P41811 1-604)
# T1 sequence (looked up): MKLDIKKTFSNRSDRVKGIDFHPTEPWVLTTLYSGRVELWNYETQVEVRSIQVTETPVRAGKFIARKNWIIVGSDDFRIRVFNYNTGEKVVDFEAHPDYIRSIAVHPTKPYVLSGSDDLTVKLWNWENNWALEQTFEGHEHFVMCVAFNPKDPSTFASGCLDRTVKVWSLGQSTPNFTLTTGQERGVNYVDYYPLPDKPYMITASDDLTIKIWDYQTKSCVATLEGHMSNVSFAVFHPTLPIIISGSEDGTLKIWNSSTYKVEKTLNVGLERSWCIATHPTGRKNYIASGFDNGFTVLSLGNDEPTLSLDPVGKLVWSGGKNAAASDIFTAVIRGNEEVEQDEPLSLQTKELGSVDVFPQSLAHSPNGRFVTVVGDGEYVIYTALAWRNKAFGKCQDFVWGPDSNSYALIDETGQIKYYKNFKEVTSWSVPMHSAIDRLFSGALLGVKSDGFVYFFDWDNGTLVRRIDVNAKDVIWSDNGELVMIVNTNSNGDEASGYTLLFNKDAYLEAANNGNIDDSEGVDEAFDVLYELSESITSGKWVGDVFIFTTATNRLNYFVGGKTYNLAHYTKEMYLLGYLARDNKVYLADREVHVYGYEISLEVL
# experiment.notes: ITC
result.type: Kd

INPUT: Please report the recorded Kd for untagged Glo3 BoCCS fragment (residues 230–300) (domain or fragment, yeast (S. cerevisiae), UniProt P38682 230-300, looked up) SQDKKKHSILSSSRKPTRLTAKKVDKSQAEDLFDQFKKEAQQEKEDEFTNSSSSTKIRQNDYDSQFMNNSK .
OUTPUT: ~1 µM

INPUT: Please report the recorded Kd for Glo3 (residues 230–290) K251E/K252E/K255E (domain or fragment, yeast (S. cerevisiae), UniProt P38682 230-290, looked up) SQDKKKHSILSSSRKPTRLTAEEVDESQAEDLFDQFKKEAQQEKEDEFTNSSSSTKIRQND .
OUTPUT: ~12 µM

INPUT: Please report the recorded Kd for Glo3 (residues 230–290) K233E (domain or fragment, yeast (S. cerevisiae), UniProt P38682 230-290, looked up) SQDEKKHSILSSSRKPTRLTAKKVDKSQAEDLFDQFKKEAQQEKEDEFTNSSSSTKIRQND .
OUTPUT: ~12 µM

INPUT: Please report the recorded Kd for Glo3 (residues 230–290) K233E/K234E/K235E (domain or fragment, yeast (S. cerevisiae), UniProt P38682 230-290, looked up) SQDEEEHSILSSSRKPTRLTAKKVDKSQAEDLFDQFKKEAQQEKEDEFTNSSSSTKIRQND .
OUTPUT: < 300 µM

Origin of values: paper PMC9960064
